pKi data for 5-HT4e receptor (Homo sapiens, UniProt Q13639) follow.
Quick note: pKi values are minus log10 of concentrations in mol/L.

In [3]: df
Out[3]:
                                   compound                                measuredon  quantitativereadout
0  CCCCN1CCC(NC(=O)c2c(O)c3ccsc3n(C(C)C)c2=O)CC1 [Example 3]  5-HT4e receptor (Homo sapiens, UniProt Q13639)                 7.33

Exercise: Please report the measured pKi for CCn1c(=O)c(C(=O)NC2CCN(CCCO)CC2)c(O)c2ccsc21 [Example 10] tested on 5-HT4e receptor (Homo sapiens, UniProt Q13639).
Sequence (Q13639 1-378 isoform Q13639-5): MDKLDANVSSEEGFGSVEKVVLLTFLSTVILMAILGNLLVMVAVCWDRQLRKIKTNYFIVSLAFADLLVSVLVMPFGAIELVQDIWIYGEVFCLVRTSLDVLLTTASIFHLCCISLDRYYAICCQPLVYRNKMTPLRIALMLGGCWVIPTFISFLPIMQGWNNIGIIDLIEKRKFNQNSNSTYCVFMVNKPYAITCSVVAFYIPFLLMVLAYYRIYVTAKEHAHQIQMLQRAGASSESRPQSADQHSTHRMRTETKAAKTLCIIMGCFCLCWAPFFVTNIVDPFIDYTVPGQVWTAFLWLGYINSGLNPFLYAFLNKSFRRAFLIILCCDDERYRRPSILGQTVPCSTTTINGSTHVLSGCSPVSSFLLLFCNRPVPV
Solution: 7.00

Exercise: Please report the measured pKi for CC(C)n1c(=O)c(C(=O)NC2CCN(CCCO)CC2)c(O)c2ccsc21 [Example 4] tested on 5-HT4e receptor (Homo sapiens, UniProt Q13639).
Solution: 7.51

Exercise: Please report the measured pKi for CCCN1CCC(NC(=O)c2c(O)c3ccsc3n(CC)c2=O)CC1 [Example 9] tested on 5-HT4e receptor (Homo sapiens, UniProt Q13639).
Solution: 7.51
